Assay: Clearance in human liver microsomes measured up to 30 mins in presence of NADPH by HPLC-MS/MS analysis
Format: ADME, Microsome
Conditions: read-out: CLH
Positions of bridges follow the written chain, without caps; N, C: chain ends. Non-standard residues stand in square brackets, D forms with d. Residues, ends and D or L forms follow the SMILES beside them. NMeF = CN[C@@H](Cc1ccccc1)C(=O)O; NMeNle = CCCC[C@H](NC)C(=O)O; Nle = CCCC[C@H](N)C(=O)O
Measured metric: microsomal CLint

Here are 3 compounds together with their reported answers.
Compound: CCCC[C@@H]1NC(=O)[C@H](Cc2ccccc2)NC(=O)CSC[C@@H](C(=O)NC)NC(=O)[C@H](CCCC)N(C)C(=O)[C@H](CCCC)N(C)C(=O)[C@H](CCCC)N(C)C(=O)[C@H](CCCC)NC(=O)[C@H](CCCC)N(C)C1=O ({CH2CO}-F[Nle][NMeNle][Nle][NMeNle][NMeNle][NMeNle]C-NHMe; thioether N-8)
microsomal CLint: ≥ 120 µL/min/mg
--
Compound: CCCC[C@@H]1NC(=O)[C@H](Cc2ccccc2)NC(=O)CSC[C@H](C(=O)NC)NC(=O)[C@H](CCCC)N(C)C(=O)[C@H](CCCC)NC(=O)[C@H](CCCC)N(C)C1=O
microsomal CLint: ≥ 350 µL/min/mg
--
Compound: CCCC[C@@H]1NC(=O)[C@H](Cc2ccccc2)N(C)C(=O)[C@@H]2CCCN2C(=O)[C@H](CCCC)N(C)C(=O)[C@H](Cc2ccccc2)NC(=O)CSC[C@@H](C(=O)NC)NC(=O)[C@H](CCCC)N(C)C1=O ({CH2CO}-F[NMeNle]P[NMeF][Nle][NMeNle]C-NHMe; thioether N-7)
microsomal CLint: ≥ 480 µL/min/mg

The record that follows has no microsomal CLint shown yet.
Query: microsomal CLint; subject: `CCCC[C@@H]1NC(=O)[C@H](CCCC)N(C)C(=O)[C@H](CCCC)NC(=O)[C@H](CCCC)N(C)C(=O)[C@@H](Cc2ccccc2)NC(=O)CSC[C@H](C(=O)NC)NC1=O`
≥ 350 µL/min/mg
